target: HLA DQ molecule DQB1*0602 (human); experiment: inhibition of radiolabeled peptide binding to purified HLA class II
readout.type: IC50 (nM)
Write the number in nM without appending the unit.

For LDLAVNAAVDAGIHF (modifications not checked) [Pen ch 18 (291-305) peptide …, Peptide ID 3324.1331] , what is its reported IC50? 480

Just for reference, patent US20150004189A1 is where these values come from.
